The values you see were collected from patent US20250027068.

- testedTarget: pooled human IgG (human IgG1, 2, 3 and 4)
endpointName: Enzyme Activity Endpoint Assay (purified): scIgG (ng/µL)

[
  {
    "protein": "PRT-663 (protein) MQITSVWTKGVTPPTPEQFRYNNEDVIHAPYLAHQGWYDITKTFDGKDNLLCGAATAGNMLHWWFDQNKTEIEAYLSKHPEKQKIIFNNQELFDLKEAINTKDSQTNSQLFNYFRDKAFPNLSARQLGVMPDLVLDMFINGYYLNVFKTQSTDVNRPYQDKDKRGGIFDAVFTRGDQTKLLTARHDLKNKGLNEISTLIKQELTEGKALALSHTYANVSISHVINLWGADFNAEGNLEAIYVTDSDANASIGMKKYFVGINASGHVAISAKKIEGENIGAQVLGLFTLSTGKDIWQKLSLEHHHHHH",
    "recordedResult": 0
  },
  {
    "protein": "PRT-431 (protein) MSQTEDSESLQRLRDIEDFQAEKKKQNVVYTKWLDGVDVKDHDFRKIVDGNIAYYATPLLNGRGFYDINKDFNRDSDKCAAAVAANMFHYWLDRNRDNVDRFLRQNPEKHGIIELPDGQLKLSDFLNTYESDDGYRDKSKLFDFISENFNGPVWTDKLLDNYINGYAYNYKYGRTIEDPTKNTSKINFFKEVFNEKILTNNHSIRNQNEFSVLLSEALYTGKAIGLSYGPAGLRHSLGHIISVWGADLDADGNVVAIYVTDSDDKKLTIGDERVGLKRYKISTDDEGRLRLTAYEETHNTGGQIRGLWTLDTGKQAWADYFDKTEQTGTDQAEQ",
    "recordedResult": 230
  }
]
